Tested on: Bacillus subtilis
procedure-details: Minimum inhibitory concentration (MIC) required to inhibit the growth of Bacillus subtilis PCI 219 by using nutrient agar as growth medium
Format: functional
property-label: MIC (µg/mL)
Enter your answer as a number in µg/mL; do not include the unit.

{"compound": "CCCC(=O)OC1C(C)OC(OC2C(C)OC(O[C@@H]3[C@H](CCNCC[C@H]4C[C@@H](C)[C@@H](O)/C=C/C=C/C[C@@H](C)OC(=O)C[C@@H](O)[C@H](OC)[C@H]4OC4OC(C)C(OC5CC(C)(O)C(OC(=O)CCC)C(C)O5)C(N(C)C)C4O)C[C@H](C)[C@H](O)/C=C/C=C/C[C@H](C)OC(=O)C[C@H](O)[C@H]3OC)C(O)C2N(C)C)CC1(C)O (some centres undefined)", "MIC [µg/mL]": 12.5}

input: Lab note: need MIC for CO[C@@H]1[C@@H](OC2OC(C)C(OC3CC(C)(O)C(OC(=O)CC(C)C)C(C)O3)C(N(C)C)C2O)[C@@H](CCNCC[C@@H]2C[C@H](C)[C@H](O)/C=C/C=C/C[C@H](C)OC(=O)C[C@H](OC(C)=O)[C@@H](OC)[C@@H]2OC2OC(C)C(OC3CC(C)(O)C(OC(=O)CC(C)C)C(C)O3)C(N(C)C)C2O)C[C@@H](C)[C@@H](O)/C=C/C=C/C[C@@H](C)OC(=O)C[C@H]1OC(C)=O (some centres undefined) on Bacillus subtilis, anyone have it?
output: 6.25

input: Lookup: MIC / Bacillus subtilis / CO[C@@H]1[C@@H](OC2OC(C)C(OC3CC(C)(O)C(OC(=O)CC(C)C)C(C)O3)C(N(C)C)C2O)[C@@H](CC=O)C[C@@H](C)[C@@H](O)/C=C/C=C/C[C@@H](C)OC(=O)C[C@H]1OC(C)=O (some centres undefined)
output: 0.4

input: Give recorded MIC with Bacillus subtilis for the following compound: CC[C@H]1OC(=O)C[C@@H](O)[C@H](C)[C@@H](O[C@@H]2O[C@H](C)[C@@H](O[C@H]3C[C@@](C)(O)[C@@H](O)[C@H](C)O3)[C@H](N(C)C)[C@H]2O)[C@@H](CC=O)C[C@@H](C)C(=O)/C=C/C(C)=C/[C@@H]1CO[C@@H]1O[C@H](C)[C@@H](O)[C@@H](OC)[C@H]1OC [TYLOSIN]
output: 0.78

---

System: Bacillus subtilis
procedure-details: Minimum inhibitory concentration (MIC) required to inhibit the growth of Bacillus subtilis PCI 219 by using nutrient agar as growth medium
Type: functional
property-label: MIC (µg/mL)
Response body: numeric value in µg/mL, unit text excluded.

{"molecule": "CC[C@@H]1OC(=O)C[C@H](O)[C@@H](C)[C@H](OC2OC(C)C(O)C(N(C)C)C2O)[C@H](CCNCC[C@H]2C[C@@H](C)C(=O)/C=C/C(C)=C/C(COC3OC(C)C(O)C(OC)C3OC)[C@@H](CC)OC(=O)C[C@@H](O)[C@H](C)[C@H]2OC2OC(C)C(O)C(N(C)C)C2O)C[C@H](C)C(=O)/C=C/C(C)=C/C1COC1OC(C)C(O)C(OC)C1OC (stereo partly drawn)", "property-label": "MIC", "value-observed": 25}

Consider the additional molecule presented here.
input: Fill blank: measured MIC of the molecule CC[C@H]1OC(=O)C[C@@H](O)[C@H](C)[C@@H](OC2OC(C)C(OC3CC(C)(O)C(O)C(C)O3)C(N(C)C)C2O)[C@@H](CCN)C[C@@H](C)C(=O)/C=C/C(C)=C/C1COC1OC(C)C(O)C(OC)C1OC (stereo partly drawn) is ____.
output: 25
